System: CCRF-CEM
Test: NCI tumour cell line growth inhibition, 48 h
Calls of active or inactive are those of the source. Rule as the data show it: active = GI50 up to about 1.1 µM and inactive = higher.
endpoint name: GI50

Some compounds with known GI50 results, for comparison:
{"compound": "CCCCNc1nc(O)c2[nH]cnc2n1", "GI50": "> 100 µM (inactive)"}
{"compound": "CN(C(=O)C1=CCC2(CC1)OCCO2)c1ccccc1I", "GI50": "> 100 µM (inactive)"}
{"compound": "c1ccc(/N=c2/[nH]c3ccccc3s/c2=N/c2ccccc2)cc1", "GI50": "> 100 µM (inactive)"}

Query string: Return reported GI50; argument: COC(=O)C1[C@H](c2ccc3c(c2)OCO3)OC(=O)[C@]1(C(=O)OC)C(=O)c1ccc(OC)c(OC)c1 (some centres undefined)
Result string: 43.3 µM (inactive)

###

System: SF-539
Assay: NCI tumour cell line growth inhibition, 48 h
Calls of active or inactive are those of the source. Cut-off read from the data, not from the text of the source: active = GI50 up to about 1.1 µM and inactive = higher.
Result category, one only: active, inactive

{"compound": "CC(OC1CC(=O)CC2C(=O)C=CC(=O)C12)c1ccccc1 (stereo not given)", "tested on": "SF-539", "label value": "inactive"}
{"compound": "COc1cc(OC)c2ssc3c(OC)cc(OC)c4ssc1c2-c43", "tested on": "SF-539", "label value": "inactive"}
{"compound": "FC(F)(F)c1ccccc1N1CCN(c2nc(-c3cccs3)nc3ccc(Br)cc23)CC1", "tested on": "SF-539", "label value": "inactive"}
{"compound": "N#CC1C(=O)N(c2ccccc2)NC12OC(=O)c1ccncc12 (stereo not given)", "tested on": "SF-539", "label value": "inactive"}
{"compound": "COc1ccc(CC2NC(=O)/C=C/CC(C(C)C3OC3c3ccccc3)OC(=O)C(CC(C)C)OC(=O)C(C)CNC2=O)cc1Cl (stereo not given)", "tested on": "SF-539", "label value": "active"}

Query string: Recorded test outcome, item COC(=O)C1=CC(O)CCC1c1ccc(OC)cc1 (stereo not given)
Result string: inactive

Query string: Hey, what did the test say about `CC(=O)CC[N+](C)(C)C` ?
Result string: inactive

Query string: Per the records of this test, what outcome belongs to `CC(C)(C)c1c2c(c(C(C)(C)C)c3c1OCN(Cc1ccccc1)C3)OCN(Cc1ccccc1)C2` ?
Result string: inactive

Query string: Identify the outcome logged in this assay for the compound shown: `Cc1c(C#N)c2nnn(-c3ccccc3)c(=O)n2c1-c1ccccc1`
Result string: inactive

Query string: Which result was noted for this compound in the test: `O=C(O)c1ccc(Nc2nc3cc(C(F)(F)F)ccc3n3cccc23)cc1`
Result string: inactive

###

Test system: SK-OV-3
Assay: NCI tumour cell line growth inhibition, 48 h
Calls of active or inactive are those of the source. No stated cut-off is given here; in the data, active = GI50 up to about 1.1 µM and inactive = higher.
Entries and their measured GI50 follow.

{"compound": "Cn1c(N)cc(=O)nc1N", "reported value": "> 100 µM (inactive)"}
{"compound": "Cc1c(C)c(S(=O)(=O)N(CCCN)OCCCN)c(C)c2c1OC(C)(C)CC2", "reported value": "15.4 µM (inactive)"}
{"compound": "O=C(O)Cc1nc[nH]c1C(=O)O", "reported value": "> 100 µM (inactive)"}
{"compound": "CCOC(=O)CC/C(=N/Nc1ccc(Cl)cc1[N+](=O)[O-])C(=O)OCC", "reported value": "> 100 µM (inactive)"}
{"compound": "COC(=O)C(CCSC)NC(=O)CNC(=O)CSc1nnc(COc2ccc(Cl)cc2)n1-c1ccccc1 (centres undefined)", "reported value": "18.1 µM (inactive)"}
{"compound": "Cc1ccc(NC(=O)CCc2nnc(S)[nH]2)cc1", "reported value": "> 100 µM (inactive)"}
{"compound": "CCN(CC)CCNc1ccc2ncn3c4ccc(OC)cc4c(=O)c1c23", "reported value": "7.71 µM (inactive)"}
{"compound": "O=C(NCCCNCCNC(=O)c1cc(-c2ccccc2)nc2ccccc12)c1cc(-c2ccccc2)nc2ccccc12", "reported value": "3.27 µM (inactive)"}

Query string: Would you kindly share the measured GI50 for `COc1cc(/C=C2\N=C(C)N(n3c(-c4ccccc4)nc4ccccc4c3=O)C2=O)cc(OC)c1OC` ?
Result string: > 100 µM (inactive)

Query string: Can you share its GI50? I mean this compound: O=C1c2ccccc2C2(Br)C(=O)c3ccccc3C12 (centres undefined)
Result string: > 100 µM (inactive)

Query string: Quick one: GI50 of `CCCc1cc(COC)c(C#N)c(O)n1` ?
Result string: > 100 µM (inactive)

Query string: Consider the compound `C/C(=N/c1[nH]c(=O)cc2c1C(=O)CC2)N(C)C` and give its measured GI50.
Result string: > 200 µM (inactive)

Query string: Given `Cc1ccc(NC(=O)/C(Cc2nc3ccc([N+](=O)[O-])cc3nc2O)=N\NC(=O)C[n+]2ccccc2)c(C)c1` , state its recorded GI50.
Result string: 22.4 µM (inactive)

Query string: Return reported GI50; argument: `COc1ccc2c(c1)/C(=C(\C(Cl)=C(\Cl)N1CCCCC1)[N+](=O)[O-])N2`
Result string: > 100 µM (inactive)

Query string: // query GI50 value for entry CC(C)(C)C1CCC2c3c([nH]c4ccccc34)C3C(=O)N(c4ccccc4[N+](=O)[O-])C(=O)C3C2C1 (centres undefined)
Result string: 37.5 µM (inactive)

Query string: // query GI50 value for entry C1CCN2CC34CC(CC5CCCN(C6CCCC3N6)C54)C2C1 (centres undefined)
Result string: > 100 µM (inactive)

Query string: Could you share which GI50 value was measured for `CCOC(=O)Cn1c(C(F)(F)F)nc2nc(Cl)c(Cl)nc21` ?
Result string: 49.1 µM (inactive)

Query string: What value of GI50 has been recorded for this entry: `N#CCCN(CCC#N)C(=O)c1cccc(C(=O)N(CCC#N)CCC#N)c1`
Result string: > 100 µM (inactive)

Query string: What measured GI50 goes with O=C(CC(=O)N1N=C(N2c3ccccc3Sc3ccccc32)CC1c1ccccc1)Nc1ccc(Cl)cc1 (centres undefined) ?
Result string: > 100 µM (inactive)

###

Test system: XF498
Assay: NCI tumour cell line growth inhibition, 48 h
Active and inactive are the calls of the source. Rule as the data show it: active = GI50 up to about 1.1 µM and inactive = higher.
Recorded GI50 for the following molecules

// below: answered molecules
{"molecule": "CSC1(C)CC2C(CC1N1CCCCC1)C2(C)C (stereo not given)", "GI50": "> 100 µM (inactive)"}
{"molecule": "Cc1ccc(NC(=O)CCc2nnc(S)[nH]2)cc1", "GI50": "> 100 µM (inactive)"}

Query string: GI50 lookup needed for O=C(CC(=O)N1N=C(N2c3ccccc3Sc3ccccc32)CC1c1ccccc1)Nc1ccc(Cl)cc1 (stereo not given) , thanks.
Result string: > 100 µM (inactive)

Query string: Look up GI50: Clc1cccc(C2N3CCCCC3[C@@H]3c4[nH]c5ccccc5c4CCN23)c1 (stereo not given in full)
Result string: 20.9 µM (inactive)

###

Listed below: GI50 values for each entry.
Tested on: SK-MEL-5
Assay: NCI tumour cell line growth inhibition, 48 h
Calls of active or inactive are those of the source. Cut-off read from the data, not from the text of the source: active = GI50 up to about 1.1 µM and inactive = higher.

The examples below pair each entry with its known result.
{"molecule": "Nc1cn(C2OC(CC(c3ccccc3)(c3ccccc3)c3ccccc3)C(O)C2O)c(=O)[nH]c1=O (stereo not given)", "GI50": "20.5 µM (inactive)"}
{"molecule": "O=C(/C=C/c1ccc([N+](=O)[O-])cc1)N1CCN(CCOC(c2ccc(F)cc2)c2ccc(F)cc2)CC1", "GI50": "13.9 µM (inactive)"}
{"molecule": "COC(=O)[C@H](Cc1c[nH]c2ccccc12)NC(=O)c1ccc(CNC(=O)/C=C/c2cccc(Oc3ccccc3)c2)cc1", "GI50": "30.3 µM (inactive)"}

Query string: # query: GI50 of entry `COC(=O)Cc1ccc2c(c1)Sc1ccc(CC(=O)OC)cc1N2C`
Result string: 12.3 µM (inactive)

Query string: Fill in: GI50 of `C#CC[C@]12CC(=O)CC[C@H]1CC1(C2)OCCO1` is ___
Result string: > 100 µM (inactive)

Query string: Which value of GI50 has been reported for `CCN(CC)CCC(=O)c1ccccc1` in the records?
Result string: 91 µM (inactive)

Query string: GET /values?readout=GI50&item= `COc1ccc(CNc2nc(NCc3ccc(OC)cc3)nc(Nc3ccccc3)n2)cc1`
Result string: 8.57 µM (inactive)

Query string: What value of GI50 has been reported for the following molecule? `COc1ccc(CCCNC(=O)Cc2cc(OC)c(OC)cc2CO)cc1OC`
Result string: > 100 µM (inactive)

Query string: Which GI50 value belongs to C1CCN2CC34CC(CC5CCCN(C6CCCC3N6)C54)C2C1 (stereo not given) ?
Result string: > 100 µM (inactive)

Query string: Would you kindly share the measured GI50 for CCOC(=O)CCC(NC(=O)c1ccc(Nc2nc3ccccc3nc2C(=O)OCC)cc1)C(=O)OCC (stereo not given) ?
Result string: 27.8 µM (inactive)
